Listed here: items and their measured viability, T/C.
# System: KRAS patient-derived spheroids with HUVEC/MSC, viability;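 also: spheroids exposed to agents for 7 days; 100% = DMSO vehicle control viability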
# Test Description: Anticancer human tumor 323965-272-R-J2-PDC patient-derived pancreatic carcinoma cell line growth inhibition [KRAS2]
# Test Settings: second compound 0.316 µM; first compound 0.01 µM; stronger effect = lower value
# From the text: Multicellular complex tumor spheroid response to RAS pathway inhibitors in combination with a targeted agents in patient-derived cell lines with oncogenic KRAS variants from multiple cancer types A high-throughput screen of multi-cell type tumor spheroids was designed to identify active combinations of targeted small molecules and KRAS pathway inhibitors. […] Compounds. […] If the clinical Cmax for an agent had not been determined, the highest concentration tested was 10 microM. […]
Express the result in % but write the number alone.

Below: 5 compounds and their reported viability, T/C.
| Compound | Endpoint Unit | viability, T/C |
| --- | --- | --- |
| CC(=O)OC12COC1CC(O)C1(C)C(=O)C(O)C3=C(C)C(OC(=O)C(O)C(NC(=O)OC(C)(C)C)c4ccccc4)CC(O)(C(OC(=O)c4ccccc4)C21)C3(C)C (stereo not given) + COc1cc2nc(C)nc(NC(C)c3cc(N)cc(C(F)(F)F)c3)c2cc1OC1CCOC1 | % | 24.2 |
| CN(C)C/C=C/C(=O)Nc1cc2c(Nc3ccc(F)c(Cl)c3)ncnc2cc1O[C@H]1CCOC1 + C=CC(=O)N1CCN(c2nc(OCC3CCCN3C)nc3c2CCN(c2cccc4cccc(C)c24)C3)CC1CC#N | % | 43.1 |
| CC1COCCN1c1cc(-c2ccnn2C)c2ccnc(-c3ccn[nH]3)c2n1 (stereo not given) + CC1OCC2(CCN(c3cnc(Sc4ccnc(N)c4Cl)c(N)n3)CC2)C1N | % | 43.1 |
| CC1COCCN1c1cc(-c2ccnn2C)c2ccnc(-c3ccn[nH]3)c2n1 (stereo not given) + COc1cc2nc(C)nc(NC(C)c3cc(N)cc(C(F)(F)F)c3)c2cc1OC1CCOC1 | % | 52.5 |
| CCN1CCN(Cc2ccc(Nc3ncc(F)c(-c4cc(F)c5nc(C)n(C(C)C)c5c4)n3)nc2)CC1 + CNCc1ccccc1-c1csc(C(C)Nc2nc(C)nc3cc(OC)c(OC)cc23)c1 | % | 93.3 |

[in] Quick one: viability, T/C for CC1COCCN1c1cc(-c2ccnn2C)c2ccnc(-c3ccn[nH]3)c2n1 (stereo not given) + C=CC(=O)N1CCN(c2nc(OCC3CCCN3C)nc3c2CCN(c2cccc4cccc(C)c24)C3)CC1CC#N ?
[out] 41.4

[in] Quick one: viability, T/C for CC(=O)OC12COC1CC(O)C1(C)C(=O)C(O)C3=C(C)C(OC(=O)C(O)C(NC(=O)OC(C)(C)C)c4ccccc4)CC(O)(C(OC(=O)c4ccccc4)C21)C3(C)C (stereo not given) + C=CC(=O)N1CCN(c2nc(OCC3CCCN3C)nc3c2CCN(c2cccc4cccc(C)c24)C3)CC1CC#N ?
[out] 20.1

[in] Quick one: viability, T/C for CC(C)n1nc(-c2ccc3oc(N)nc3c2)c2c(N)ncnc21 + C=CC(=O)N1CCN(c2nc(=O)n(-c3c(C)ccnc3C(C)C)c3nc(-c4c(O)cccc4F)c(F)cc23)C(C)C1 ?
[out] 22.1
